Where do these numbers come from? They come from patent US7435837B2.

EXPERIMENTAL SYSTEM: human 5-HT2C receptor (Homo sapiens)
PROCEDURE TEXT: 5-HT2C receptor-stimulated calcium mobilization (FLIPR) in CHO cells
Assay type: cell-based
STUDY CONDITIONS: calcium mobilization, CHO cells stably expressing human 5-HT2C; read-out: 5-HT2C Function EC50
Listed molecules paired with reported log10 of EC50
MEASURED METRIC: log10 of EC50 (log10 of the value in nM)

INSERT INTO assay_data (molecule, measured_metric, numeric_readout) VALUES
  ('COc1cc2c(c(-c3cc(Cl)ccc3OC)c1)OC(CN)C2 (racemic) [Example 372]', 'log10 of EC50', 2.35),
  ('COc1cc2c(c(-c3cc(F)ccc3F)c1)OC(CN)C2 (racemic) [Example 366]', 'log10 of EC50', 2.60),
  ('NCC1Cc2c(F)c(F)cc(-c3ccccc3)c2O1 (racemic) [Example 109]', 'log10 of EC50', 3.51),
  ('NCC1Cc2cc(Cl)cc(-c3cccc(F)c3F)c2O1 (racemic) [Example 244]', 'log10 of EC50', 1.72),
  ('Cc1c(Cl)cc(C(C)C)c2c1CC(CN)O2 (single isomer, unassigned; (-)) [Example 22]', 'log10 of EC50', 1.40);

----------
EXPERIMENTAL SYSTEM: human 5-hydroxytryptamine-2C (h5-HT2C) receptor (Homo sapiens)
Construct: expressed in transfected cells; host or cells: CHO (Chinese Hamster Ovary) cells; membranes
PROCEDURE TEXT: [125I]DOI binding to membranes of CHO cells expressing the human 5-HT2C receptor
STUDY CONDITIONS: [125I]DOI radioligand, CHO cell membranes, room temperature 60 min; read-out: 5-HT2C Affinity Ki
pKi: −log10 of the molar value.
# pKi listing for each entry below
MEASURED METRIC: pKi

INSERT INTO assay_data (molecule, numeric_readout) VALUES
  ('CNCC1Cc2cccc(-c3c(Cl)cc(Cl)cc3Cl)c2O1 (racemic)', 9.22),
  ('NCC1Cc2cc(F)cc(-c3ccccc3C(F)(F)F)c2O1 (single isomer, unassigned; (+)) [Example 152]', 8.18),
  ('CNCC1Cc2cccc(-c3cccc(OC)c3OC)c2O1 (racemic)', 8.21);

----------
Below: a set of entries, each annotated with reported Emax.
EXPERIMENTAL SYSTEM: human 5-HT2C receptor (Homo sapiens)
PROCEDURE TEXT: 5-HT2C receptor-stimulated calcium mobilization (FLIPR) in CHO cells
Type: cell-based
STUDY CONDITIONS: CHO, percentage of the response observed with a maximally effective concentration of 5-HT; read-out: 5-HT2C Function Emax (%)
MEASURED METRIC: Emax (%)

INSERT INTO measurements (compound, experimental_system, measured_metric, numeric_readout) VALUES
  ('CNCC1Cc2cccc(-c3cccc(F)c3)c2O1 (racemic) [Example 415]', 'human 5-HT2C receptor (Homo sapiens)', 'Emax', 70),
  ('Cc1ccccc1-c1cc(C#N)cc2c1OC(CN)C2 (racemic) [Example 311]', 'human 5-HT2C receptor (Homo sapiens)', 'Emax', 90),
  ('CNCC1Cc2cc(C(F)(F)F)cc(-c3ccccc3)c2O1 (racemic) [Example 518]', 'human 5-HT2C receptor (Homo sapiens)', 'Emax', 80),
  ('CNCC1Cc2cc(OC)cc(-c3ccc(F)cc3F)c2O1 (racemic) [Example 497]', 'human 5-HT2C receptor (Homo sapiens)', 'Emax', 70),
  ('NCC1Cc2cccc(-c3ccccc3F)c2O1 (racemic) [Example 50]', 'human 5-HT2C receptor (Homo sapiens)', 'Emax', 100),
  ('CNCC1Cc2cc(C)cc(-c3ccc(F)cc3)c2O1 (racemic) [Example 482]', 'human 5-HT2C receptor (Homo sapiens)', 'Emax', 80),
  ('Cc1cc2c(c(-c3ccc(Cl)cc3)c1)OC(CN)C2 (racemic) [Example 292]', 'human 5-HT2C receptor (Homo sapiens)', 'Emax', 100),
  ('Cc1ccccc1-c1c(F)ccc2c1OC(CN)C2 (racemic) [Example 395]', 'human 5-HT2C receptor (Homo sapiens)', 'Emax', 90),
  ('Fc1cc2c(c(-c3c(Cl)cccc3Cl)c1)OC(CN1CCCC1)C2 (racemic) [Example 240]', 'human 5-HT2C receptor (Homo sapiens)', 'Emax', 70),
  ('CNCC1Cc2cc(OC)cc(-c3cccc(Cl)c3Cl)c2O1 (racemic) [Example 495]', 'human 5-HT2C receptor (Homo sapiens)', 'Emax', 60),
  ('NCC1Cc2cc(Cl)cc(-c3cccnc3)c2O1 (racemic) [Example 266]', 'human 5-HT2C receptor (Homo sapiens)', 'Emax', 90),
  ('CCc1cc2c(c(-c3ccccc3Cl)c1)OC(CN)C2 (racemic) [Example 306]', 'human 5-HT2C receptor (Homo sapiens)', 'Emax', 100),
  ('NCC1Cc2cc(F)cc(-c3ccc(Cl)cc3)c2O1 (racemic) [Example 200]', 'human 5-HT2C receptor (Homo sapiens)', 'Emax', 80),
  ('NCC1Cc2cc(Cl)cc(-c3ccccc3F)c2O1 (racemic) [Example 241]', 'human 5-HT2C receptor (Homo sapiens)', 'Emax', 90),
  ('NCC1Cc2cc(Cl)cc(-c3ccsc3)c2O1 (single isomer, unassigned; (-)) [Example 91]', 'human 5-HT2C receptor (Homo sapiens)', 'Emax', 100);

----------
Emax for assorted compounds
EXPERIMENTAL SYSTEM: UniProt P28335
PROCEDURE TEXT: 5-HT2C receptor-stimulated calcium mobilization (FLIPR) in CHO cells
Type: cell-based
STUDY CONDITIONS: CHO, percentage of the response observed with a maximally effective concentration of 5-HT; read-out: 5-HT2C Function Emax (%)
MEASURED METRIC: Emax (%)

INSERT INTO measurements (compound, measured_metric, unit_name, numeric_readout) VALUES
  ('COc1cc2c(c(-c3cc(Cl)ccc3OC)c1)OC(CN)C2 (racemic)', 'Emax', '%', 80),
  ('Fc1cc2c(c(-c3c(Cl)cccc3Cl)c1)OC(CNC1CC1)C2 (racemic)', 'Emax', '%', 80),
  ('Cc1cc2c(c(-c3ccc(Cl)cc3Cl)c1)OC(CN)C2 (single isomer, unassigned; (-)) [Example 298]', 'Emax', '%', 90),
  ('NCC1Cc2cc(C(F)(F)F)cc(-c3ccsc3)c2O1 (racemic)', 'Emax', '%', 80),
  ('NCC1Cc2cc(F)cc(-c3c(Cl)cccc3Cl)c2O1 (single isomer, unassigned; (+)) [Example 551]', 'Emax', '%', 90),
  ('Fc1cc2c(c(-c3c(Cl)cccc3Cl)c1)OC(CNCC1CC1)C2 (racemic)', 'Emax', '%', 50);

----------
EXPERIMENTAL SYSTEM: human 5-HT2C receptor (Homo sapiens)
Sequence (P28335 33-458): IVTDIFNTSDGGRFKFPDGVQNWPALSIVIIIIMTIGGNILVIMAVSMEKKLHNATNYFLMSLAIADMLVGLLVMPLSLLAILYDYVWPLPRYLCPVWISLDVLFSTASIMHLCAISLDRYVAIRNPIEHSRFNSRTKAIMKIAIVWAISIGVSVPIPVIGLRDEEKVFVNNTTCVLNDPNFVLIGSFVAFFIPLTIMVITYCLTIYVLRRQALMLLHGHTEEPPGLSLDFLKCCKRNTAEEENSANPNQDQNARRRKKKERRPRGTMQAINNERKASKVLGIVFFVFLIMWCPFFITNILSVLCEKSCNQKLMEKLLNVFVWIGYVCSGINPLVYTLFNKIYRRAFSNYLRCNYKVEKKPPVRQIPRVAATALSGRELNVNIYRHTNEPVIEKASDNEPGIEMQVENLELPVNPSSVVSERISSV
PROCEDURE TEXT: 5-HT2C receptor-stimulated calcium mobilization (FLIPR) in CHO cells;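 note: Fluo-3-AM fluorescence read on FLIPR every 1 s, agonist added after 10 baseline reads, response taken as peak minus lowest raw fluorescence count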
Format: cell-based
STUDY CONDITIONS: calcium mobilization, CHO cells stably expressing human 5-HT2C; read-out: 5-HT2C Function EC50
pEC50: −log10 of the molar value.
MEASURED METRIC: pEC50

INSERT INTO results (compound, numeric_readout) VALUES
  ('Cc1c(Cl)cc(C(C)C)c2c1CC(CN)O2 (single isomer, unassigned; (+)) [Example 23]', 7.14),
  ('CNCC1Cc2cc(Cl)cc(-c3c(C)cccc3C)c2O1 (single isomer, unassigned; (-)) [Example 564]', 7.37),
  ('NCC1Cc2cc(F)cc(-c3cccc(Cl)c3Cl)c2O1 (racemic)', 6.17),
  ('NCC1Cc2cccc(-c3ccc(Cl)cc3)c2O1 (racemic) [Example 76]', 7.60),
  ('NCC1Cc2cccc(-c3ccc(F)cc3F)c2O1 (single isomer, unassigned; (+)) [Example 147]', 8.15),
  ('Cc1cc2c(c(-c3ccccc3C(F)(F)F)c1)OC(CN)C2 (racemic)', 7.68),
  ('NCC1Cc2cc(Cl)cc(-c3cc(Cl)ccc3Cl)c2O1 (racemic)', 8.40),
  ('NCC1Cc2cc(Cl)cc(-c3ccc(F)c(F)c3)c2O1 (racemic)', 6.13),
  ('NCC1Cc2cccc(-c3cccc(Cl)c3)c2O1 (single isomer, unassigned; (-)) [Example 67]', 5.24),
  ('CNCC1Cc2cc(OC)cc(-c3cc(C)ccc3C)c2O1 (racemic)', 6.59),
  ('COc1cccc(-c2cccc3c2OC(CN)C3)c1 (racemic) [Example 68]', 6.84),
  ('Cc1cccc(C)c1-c1cc(F)cc2c1OC(CN)C2 (racemic) [Example 227]', 8.52),
  ('COc1ccccc1-c1cccc2c1OC(CN)C2 (racemic) [Example 59]', 6.90),
  ('CNCC1Cc2cc(Cl)cc(-c3c(C)cccc3C)c2O1 (single isomer, unassigned; (+)) [Example 565]', 6.54),
  ('NCC1Cc2cccc(-c3ccccc3Cl)c2O1 (single isomer, unassigned; (-)) [Example 129]', 9.70),
  ('CNCC1Cc2cc(C)cc(-c3ccc(Cl)cc3Cl)c2O1 (racemic)', 7.49),
  ('Cc1cc2c(c(-c3ccccc3F)c1)OC(CN)C2 (racemic)', 8.22),
  ('NCC1Cc2cc(F)cc(-c3ccccc3)c2O1 (racemic)', 6.00),
  ('Cc1ccccc1-c1cc(C(F)(F)F)cc2c1OC(CN)C2 (racemic)', 7.38),
  ('CCNCC1Cc2cc(Cl)cc(-c3c(C)cccc3C)c2O1 (racemic)', 6.23),
  ('Cc1ccccc1-c1cc(C#N)cc2c1OC(CN)C2 (racemic)', 7.20),
  ('NCC1Cc2cc(F)cc(-c3ccc(F)cc3F)c2O1 (racemic)', 7.10),
  ('NCC1Cc2cccc(-c3cc(Cl)ccc3Cl)c2O1 (single isomer, unassigned; (+)) [Example 164]', 9.52),
  ('Cc1cccc(C)c1-c1cc(Cl)cc2c1OC(CN1CCNCC1)C2 (racemic)', 6.81),
  ('Cc1ccc(C)c(-c2cccc3c2OC(CN)C3)c1 (racemic)', 7.49),
  ('Cc1cccc(C)c1-c1cc(Cl)cc2c1OC(CNC(C)C)C2 (racemic)', 6.07),
  ('NCC1Cc2cc(-c3ccccc3)cc(-c3ccccc3)c2O1 (racemic)', 5.54);
